Please respond with reported pEC50 for every item in the list.
B1: eukaryotic translation factor 5A-1 (eIF5A-1), residues 15-151 [human] / deoxyhypusine synthase, wild type, His-tagged [human] (parent complex)
chain 1: not shown
chain 2: MEGSLEREAPAGALAAVLKHSSTLPPESTQVRGYDFNRGVNYRALLEAFGTTGFQATNFGRAVQQVNAMIEKKLEPLSQDEDQHADLTQSRRPLTSCTIFLGYTSNLISSGIRETIRYLVQHNMVDVLVTTAGGVEEDLIKCLAPTYLGEFSLRGKELRENGINRIGNLLVPNENYCKFEDWLMPILDQMVMEQNTEGVKWTPSKMIARLGKEINNPESVYYWAQKNHIPVFSPALTDGSLGDMIFFHSYKNPGLVLDIVEDLRLINTQAIFAKCTGMIILGGGVVKHHIANANLMRNGADYAVYINTAQEFDGSDSGARPDEAVSWGKIRVDAQPVKVYADASLVFPLLVAETFAQKMDAFMHEKNED

Variants of: B1
assay-info: MST; read off a plot
pEC50: −log10 of the molar value.

Study these solved cases before continuing.
> print(dat)
   sequence.variant  recorded.measurement
1     chain 2 D243A                 ~6.30
2     chain 2 H288A                 ~7.30

Could I get pEC50 for every one of these entries?
1. chain 2 W327A
2. chain 2 K329A
3. chain 2 E137A

Given back:
["~6.22", "~6.89", "~7.35"]
